# Tested on: MOLT-4
# Assay comment: NCI tumour cell line growth inhibition, 48 h
Calls of active or inactive are those of the source. Cut-off read from the data, not from the text of the source: active = GI50 up to about 1.1 µM and inactive = higher. Non-standard residues stand in square brackets, D forms with d. Residues, ends and D or L forms follow the SMILES beside them. *: point of attachment. Ac5c = NC1(C(=O)O)CCCC1; Boc = CC(C)(C)OC(=O)*; tBu = CC(C)(C)*
Readout: GI50

>>> value_observed("COC(=O)C(=O)C(C#N)c1cccc(Cl)c1 (centres undefined)")
"> 100 µM (inactive)"
>>> value_observed("Cc1ccc2c(c1)[nH]c(=S)n2C=C1C(=O)CC(C)(C)CC1=O")
"> 100 µM (inactive)"
>>> value_observed("CC(OC(C)(C)C)C(NC(=O)C(CCCCNC(=O)OC(C)(C)C)NC(=O)C(Cc1c[nH]c2ccccc12)NC(=O)C(N)Cc1ccccc1)C(=O)NC(Cc1ccccc1)C(=O)NC1(C(=O)O)CCCC1 (centres undefined) (H-FWK(Boc)T(tBu)F[Ac5c]-OH; configuration not given here)")
"> 100 µM (inactive)"

Could you now look at the following compound, please?
Qu. Give the reported value of GI50 for this record: CCN(CC)c1ccc2cc(-c3nnc(-c4ccccc4O)o3)c(=O)oc2c1
Ans. 3.03 µM (inactive)
